test: gradient 5% acetonitrile 3 min, to 50% in 2 min, to 85% in 15 min, held 3 min, 100 µL/min; conditions: column: Zorbax Extend-C18 2.1 x 50 mm; eluents: water / acetonitrile, 0.1% formic acid
Property: RP-LC retention time (s)

Molecule	RP-LC retention time (s)
O=C(CC1CCN(C(=O)c2cc3cc(Cl)ccc3[nH]2)CC1)NCCCN1CCCC1	644
O=C(NCCS(=O)(=O)N1CCN(c2ccccc2)CC1)c1ccc(Br)o1	807
Cc1cc(CC(=O)N2CCCn3ccnc3C2C2CCCC2)on1 (stereo not drawn)	587

---

assay: gradient 5% acetonitrile 3 min, to 50% in 2 min, to 85% in 15 min, held 3 min, 100 µL/min; details: column: Zorbax Extend-C18 2.1 x 50 mm; eluents: water / acetonitrile, 0.1% formic acid
Property: RP-LC retention time (s)

// solved cases for RP-LC retention time follow
Compound	Quantitative Result
Cn1cc(S(=O)(=O)N2CCC(C(=O)NCc3cccs3)CC2)cc1C(=O)N1CCCC1	706
CCc1nc(-c2ccc(C(=O)N3CCN(C(=O)c4ccco4)CC3)cc2)cs1	767
CCc1nnc(-c2ccc3ccn(CC(=O)Nc4ccc5c(c4)OCO5)c3c2)o1	794
CCNC(=O)c1nnc(-c2ccc(S(=O)(=O)N3CCCC3)cc2)o1	753
COC(=O)C1=CN(c2ccc(F)c(Cl)c2)c2ccc(F)cc2S1(=O)=O	929

a: O=S(=O)(c1cccc(F)c1)N1CC(c2noc(C3CCCN3CC3CC3)n2)C1 (stereo unspecified)
b: CC(C)c1cc(C(=O)Nc2ccc(C#N)cc2)nc2ccnn12
Between the two listed entries a and b , which has its RP-LC retention time at the higher number? Please identify the chosen entry by its label. b

---

experiment: gradient 5% acetonitrile 3 min, to 50% in 2 min, to 85% in 15 min, held 3 min, 100 µL/min; conditions: column: Zorbax Extend-C18 2.1 x 50 mm; eluents: water / acetonitrile, 0.1% formic acid
Property: RP-LC retention time (s)

Molecule	Quantitative Result
Cn1c(=O)c(SCC(=O)NCc2cccc(Cl)c2)nc2ccccc21	819
OCC(O)C1OCOC(C(O)CO)C1O (centres undefined)	719
COc1cc(NC(=O)C2CCCN(c3cnc4nccnc4c3)C2)cc(OC)c1 (centres undefined)	712
Cc1cccc(-c2ncccc2CNS(=O)(=O)Cc2ccccc2F)c1	705

---

test: gradient 5% acetonitrile 3 min, to 50% in 2 min, to 85% in 15 min, held 3 min, 100 µL/min; settings: column: Zorbax Extend-C18 2.1 x 50 mm; eluents: water / acetonitrile, 0.1% formic acid
Property: RP-LC retention time (s)

Sample answers from the record:
Compound	Unit Of Measurement	RP-LC retention time
CC(C)CNC(=O)c1ccn[nH]1	s	604
Cc1ccc(S(=O)(=O)N2CCC(n3cnnc3-c3ccccc3)CC2)cc1C	s	859

P: CC(=O)NCCCCCCNC(C)=O
Q: COc1ccc(NS(=O)(=O)c2cc(-c3cc(C(F)(F)F)on3)sc2C)cc1
Could you kindly indicate whether P or Q has the higher RP-LC retention time value? When you have decided, please share the label of that item. Q

---

assay: gradient 5% acetonitrile 3 min, to 50% in 2 min, to 85% in 15 min, held 3 min, 100 µL/min; details: column: Zorbax Extend-C18 2.1 x 50 mm; eluents: water / acetonitrile, 0.1% formic acid
Property: RP-LC retention time (s)

Sample Smiles	RP-LC retention time / s
Cc1nc(NC(=O)c2ccc(F)cc2)nc2cc3c(cc12)OCO3	705
CCOc1ccc(-n2c(SCC(=O)Nc3ncn[nH]3)nc3ccsc3c2=O)cc1	692
Cc1ccc(NC(=O)N2CCC(OC3CCN(S(C)(=O)=O)CC3)CC2)cc1F	792
Cc1cccc(NC(=O)Cn2ccc3ccc(-c4nnc(C)o4)cc32)c1	814
COc1ccc(NC(=O)Cn2nc3c(Oc4cccc(F)c4)nccn3c2=O)cc1	814
